# assay.text: Quantitative High-Throughput drug screen in 47 multiple myeloma cell lines against the NCATS MIPE library collection: RPMI8226_ATCC cell viability assay (AID 1919871); further: nearly all actives have a fitted effect of over 30% in size
# condition.description: RPMI8226 myeloma viability, CellTiter-Glo ATP luminescence, 48 h; series mostly up to 45.8 µM
Records with an inconclusive call do not appear. Calls of active or inactive are those of the source. The call rests on the fitted dose curve; in most records, active means well fitted cell-killing curve with a large enough effect; inconclusive means small, poorly fitted or top-dose-only effect, or effect the other way; inactive means no such curve, though single readings can be large or run the other way.
Pick one: 1 (yes) = active, 0 (no) = inactive

# outcome recorded in this test, key = C=CCNC1=C2C[C@@H](C)C[C@H](OC)[C@@H](O)[C@@H](C)C=C(C)[C@H](OC(N)=O)[C@@H](OC)C=CC=C(C)C(=O)NC(=CC1=O)C2=O
1 (yes)

# outcome recorded in this test, key = O=C(Nc1cccc(Nc2ncc(Br)c(NCCc3cnc[nH]3)n2)c1)N1CCCC1
1 (yes)

# outcome recorded in this test, key = O=C(NNC(=O)c1ccc(CNS(=O)(=O)c2ccc(F)c(Cl)c2)cc1)c1ccccc1
0 (no)
